tested on: T24 cell line; assay: MTT cytotoxicity assay, 48 h, alone and in combination (IC50 and Combination Index); format: cell-based; conditions: SEQ ID NO: 1 at 0 μg/mL; read-out: IC50 of Cisplatin
measurement_name: IC50 (µM)

INSERT INTO assay_data (compound, measurement_name, unit_spec, quantitative_result) VALUES
  ('N.N.[Cl][Pt][Cl] [Cisplatin, reference compound]', 'IC50', 'µM', 39);

* * *

system: T24 cell line; test: MTT cytotoxicity assay, 48 h, alone and in combination (IC50 and Combination Index); type: cell-based; conditions: SEQ ID NO: 1 at 10 μg/mL; read-out: IC50 of Cisplatin
measurement_name: IC50 (nM)

INSERT INTO measurements (compound, quantitative_result) VALUES
  ('N.N.[Cl][Pt][Cl] [Cisplatin, reference compound]', 97.1);

The values you see were collected from patent US20220257704A1.
